Experiment: self-splicing fitness, log relative to wild type (ln ratio); higher = more splicing; Tetrahymena group I intron in knt gene, E. coli kanamycin selection, DiMSum; sequences stand for … in CUCUCU…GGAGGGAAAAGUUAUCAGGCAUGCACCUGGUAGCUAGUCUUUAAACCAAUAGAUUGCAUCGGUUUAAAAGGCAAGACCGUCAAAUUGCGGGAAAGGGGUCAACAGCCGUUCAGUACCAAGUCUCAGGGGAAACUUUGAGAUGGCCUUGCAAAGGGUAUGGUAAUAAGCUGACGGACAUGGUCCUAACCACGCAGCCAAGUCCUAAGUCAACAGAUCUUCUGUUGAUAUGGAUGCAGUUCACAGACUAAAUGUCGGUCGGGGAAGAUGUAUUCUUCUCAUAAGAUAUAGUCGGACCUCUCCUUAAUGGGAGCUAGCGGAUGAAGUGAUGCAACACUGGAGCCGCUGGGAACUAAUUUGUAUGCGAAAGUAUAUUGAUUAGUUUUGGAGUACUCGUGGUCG;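 further: selection with 25 µg/mL kanamycin versus none on LB agar overnight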
Settings: 37 °C
We begin with a simple list: items and their reported self-splicing fitness (ln).
recorded_metric: self-splicing fitness (ln)

UGACAGCAAUAUUACGUUUU	-1.43
GCCUAGCAAUAUUACGACGA	-0.629
UUUCAGCAAUAUUACGUCCA	0.0389
UUCGAGCAAUAUUACGAUCG	-1.53
CAAAAGCAAUAUUACGGCCA	-0.283
GAAAAGCAAUAUUACGAUUU	-0.372
GUUCAGCAAUAUUACGCUGC	-1.76
CAGGAGCAAUAUUACGCUUA	-2.02

---

Test: self-splicing fitness, log relative to wild type (ln ratio); higher = more splicing; Tetrahymena group I intron in knt gene, E. coli kanamycin selection, DiMSum; sequences stand for … in CUCUCU…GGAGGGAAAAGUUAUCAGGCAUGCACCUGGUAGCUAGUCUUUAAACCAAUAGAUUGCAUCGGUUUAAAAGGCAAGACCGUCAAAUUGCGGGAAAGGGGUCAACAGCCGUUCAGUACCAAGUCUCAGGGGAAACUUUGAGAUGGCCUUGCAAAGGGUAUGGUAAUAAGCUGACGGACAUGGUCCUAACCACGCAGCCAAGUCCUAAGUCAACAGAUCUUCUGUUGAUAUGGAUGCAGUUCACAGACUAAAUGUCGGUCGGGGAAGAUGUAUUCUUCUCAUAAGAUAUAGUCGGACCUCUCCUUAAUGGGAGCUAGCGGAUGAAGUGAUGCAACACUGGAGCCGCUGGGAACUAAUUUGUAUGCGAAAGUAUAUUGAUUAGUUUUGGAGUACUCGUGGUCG
Conditions: 37 °C
Please note: true applies when self-splicing fitness (ln) is -2 or greater, and false applies otherwise.

UUCAAGCAAUAUUACGUUUG	false
CUAGAGCAAUAUUACGUUUG	true
AUGUAGCAAUAUUACGCACA	true
GCCGAGCAAUAUUACGCUUU	true
CAUAAGCAAUAUUACGCUGA	false
UUUGAGCAAUAUUACGAAGC	true
UUGAAGCAAUAUUACGUUGU	false
ACCCAGCAAUAUUACGGCAA	true
UGUCAGCAAUAUUACGCAAU	false
UUUUAGCAAUAUUACGCAAA	true
UGUAAGCAAUAUUACGCCGU	false
GUAAAGCAAUAUUACGAUUU	true
AUCUAGCAAUAUUACGCCUC	true
UGGCAGCAAUAUUACGUAUC	true
AGGAAGCAAUAUUACGACCG	true
UAUCAGCAAUAUUACGGUUG	true
CCUGAGCAAUAUUACGCCGC	true
UCUGAGCAAUAUUACGUGUG	true
CUGAAGCAAUAUUACGCUAG	true
UCUUAGCAAUAUUACGUACC	true
UUGGAGCAAUAUUACGACUG	true
UAAUAGCAAUAUUACGCAUA	true
UGUAAGCAAUAUUACGUGAC	true
UCCCAGCAAUAUUACGCAUG	false
UAUCAGCAAUAUUACGUAGU	true
CUACAGCAAUAUUACGUAAG	true
ACCUAGCAAUAUUACGAUUU	true
GGGUAGCAAUAUUACGGAGU	true
UCCCAGCAAUAUUACGGUGA	true
UGUUAGCAAUAUUACGGAAA	false
GUUUAGCAAUAUUACGGUUG	true
GACGAGCAAUAUUACGUUAU	false
AACCAGCAAUAUUACGACAU	true
UUGAAGCAAUAUUACGCCUG	true
CGGUAGCAAUAUUACGUUAG	true
GAGUAGCAAUAUUACGCCAC	true
UGCCAGCAAUAUUACGAACA	true
AAAAAGCAAUAUUACGGCGA	true
UCACAGCAAUAUUACGGGCA	true
CUUAAGCAAUAUUACGCCCA	true
UAGGAGCAAUAUUACGAAGC	true
UCUCAGCAAUAUUACGUGAA	true
GGUCAGCAAUAUUACGCCGA	false
AGAAAGCAAUAUUACGGUAG	false
UUAAAGCAAUAUUACGCGUC	true
UGGUAGCAAUAUUACGUCUG	true
AGUGAGCAAUAUUACGUCGU	false
UGAUAGCAAUAUUACGAGUG	true
CGUGAGCAAUAUUACGACUG	true
GCGUAGCAAUAUUACGCCAG	false
UAUCAGCAAUAUUACGGGAC	false
UCUUAGCAAUAUUACGGCGG	true
GGGAAGCAAUAUUACGAAUU	true
CGUUAGCAAUAUUACGACAG	true
CUGAAGCAAUAUUACGUAAU	false
GGAGAGCAAUAUUACGAAGU	true
AGCCAGCAAUAUUACGAGUC	true
AUGGAGCAAUAUUACGUUCU	false
AUAUAGCAAUAUUACGACGC	true
CCACAGCAAUAUUACGACUU	false
UGCCAGCAAUAUUACGAACC	false
UCUGAGCAAUAUUACGGUCA	true
CAUCAGCAAUAUUACGUUAG	true
UGUUAGCAAUAUUACGCUUC	true
ACCGAGCAAUAUUACGUUUA	false
